Data origin: paper PMC5732184

- TESTED_ON: His-bHLH34 (Arabidopsis thaliana) (UniProt Q9LTC7)
- Sequence: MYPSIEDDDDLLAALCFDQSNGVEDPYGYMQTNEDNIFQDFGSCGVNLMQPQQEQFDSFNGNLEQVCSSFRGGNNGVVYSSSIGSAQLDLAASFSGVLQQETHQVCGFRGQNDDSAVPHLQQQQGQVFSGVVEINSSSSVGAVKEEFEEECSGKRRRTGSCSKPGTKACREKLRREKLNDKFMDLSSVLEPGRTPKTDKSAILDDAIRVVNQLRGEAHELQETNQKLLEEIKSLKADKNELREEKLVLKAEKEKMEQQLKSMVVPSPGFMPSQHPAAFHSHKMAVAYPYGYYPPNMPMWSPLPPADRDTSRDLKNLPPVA
- PROTOCOL: EMSA
- DETAILS: 10 mM Tris-HCl pH 7.5, 50 mM KCl, 1 mM EDTA, 1 mM DTT, 2.5% glycerol, 1 ug poly(dI-dC), 100 ng protein, 0.3 pmol DNA in 20 uL; 25 C 20 min; 5% native PAGE in …
REPORTED_ENDPOINT: binding

Query: # query: binding | item AACCACGGACTCAGATCCATTCCTCGAGACGTTTGAATCTCCCTCTTCAATATTCAATCCCGTACAAGGTGTTACGGAGTAGGAGTAGAAGATTAGGACTCGTCGTCAGTTCTGTTTCAGCTCCCAACGTTGAGCTCCGT (double strand) [P4 fragment (-594 to -456)] | system: His-bHLH34 (Arabidopsis thaliana) (UniProt Q9LTC7)
Result: binds

Query: # query: binding | item TATTCGCAACCTATTCACAATTCACAAACTTTCAAATAAATGCGCCAAACTAAGTCAGATCCTCAAGATCGGTGTATACAAATCAGAAATCGTTACACAACCTTAGAGAGGAGGGTAGAAATGAGATCATCAGGTCCAGT (double strand) [P3 fragment (-734 to -595)] | system: His-bHLH34 (Arabidopsis thaliana) (UniProt Q9LTC7)
Result: binds

Query: # query: binding | item GAAGAAGAGACGGCCTATCACGCTTCTGTAGCCTCCACCAGGAGAGGTTGGTCTAGAACAGTACACCACTTCCCAATCTGCACCAAATCCCACAAGTTCACATATTGATCCAAGGAAGAAGCAA (double strand) [P1 fragment (-999 to -875)] | system: His-bHLH34 (Arabidopsis thaliana) (UniProt Q9LTC7)
Result: binds

Query: # query: binding | item GTGATGGAGGTGTGACGCTAAGCCCTGAGCAGCACAAGGAGGTGGCACAAGTGGCCGGAGAGCTTCAAAAGTACTGTGTCAAGGAGCCTGTCAAAAATCCTCTCATTTTTGGAGGTAAAAGTGTAAGAACCTAGCTGCCA (double strand) [P2 fragment (-874 to -735)] | system: His-bHLH34 (Arabidopsis thaliana) (UniProt Q9LTC7)
Result: binds
